Where these numbers come from: ChEMBL document CHEMBL2146376

Catalogue of MIC readings, one per entry.
tested on: Staphylococcus aureus; experiment: Antibacterial activity against PVL-deficient and non-typable methicillin-resistant Staphylococcus aureus N229-T034 after 24 hrs by broth dilution method; format: functional; conditions: N229-T034, 24 h
Square brackets hold non-standard residues; d marks the D form. Peptide text beside a SMILES is read from it. Orn = NCCC[C@H](N)C(=O)O

>  <compound>
CCCCCCCCCC[C@@H]1NC(=O)[C@H](CCCN)NC(=O)[C@@H]2CCCN2C(=O)[C@@H](Cc2ccccc2)NC(=O)[C@H](CCCN)NC(=O)[C@H](C(C)C)NC(=O)[C@H](CCCN)NC(=O)[C@@H]2CCCN2C(=O)[C@@H](Cc2ccccc2)NC(=O)[C@H](CCCN)NC1=O

>  <target-or-system>
Staphylococcus aureus

>  <bound-type>
=

>  <MIC [µg/mL]>
8

$$$$
>  <compound>
CC(C)(C)C[C@@H]1NC(=O)[C@H](CCCN)NC(=O)[C@@H]2CCCN2C(=O)[C@@H](Cc2ccccc2)NC(=O)[C@H](CCCN)NC(=O)[C@H](CC23CC4CC(CC(C4)C2)C3)NC(=O)[C@H](CCCN)NC(=O)[C@@H]2CCCN2C(=O)[C@@H](Cc2ccccc2)NC(=O)[C@H](CCCN)NC1=O

>  <target-or-system>
Staphylococcus aureus

>  <bound-type>
=

>  <MIC [µg/mL]>
16

$$$$
>  <compound>
CC(C)C[C@@H]1NC(=O)[C@H](CCCN)NC(=O)[C@@H]2CCCN2C(=O)[C@@H](Cc2ccccc2)NC(=O)[C@H](CCCN)NC(=O)[C@H](CC23CC4CC(CC(C4)C2)C3)NC(=O)[C@H](CCCN)NC(=O)[C@@H]2CCCN2C(=O)[C@@H](Cc2ccccc2)NC(=O)[C@H](CCCN)NC1=O

>  <target-or-system>
Staphylococcus aureus

>  <bound-type>
=

>  <MIC [µg/mL]>
32

$$$$
>  <compound>
CC(C)[C@@H]1NC(=O)[C@H](CCCN)NC(=O)[C@@H]2CCCN2C(=O)[C@@H](Cc2ccccc2)NC(=O)[C@H](CCCN)NC(=O)[C@H](C23CC4CC(CC(C4)C2)C3)NC(=O)[C@H](CCCN)NC(=O)[C@@H]2CCCN2C(=O)[C@@H](Cc2ccccc2)NC(=O)[C@H](CCCN)NC1=O

>  <target-or-system>
Staphylococcus aureus

>  <bound-type>
>

>  <MIC [µg/mL]>
64

$$$$
>  <compound>
NCCC[C@@H]1NC(=O)[C@H](CC23CC4CC(CC(C4)C2)C3)NC(=O)[C@H](CCCN)NC(=O)[C@@H]2CCCN2C(=O)[C@@H](Cc2ccccc2)NC(=O)[C@H](CCCN)NC(=O)[C@H](CC23CC4CC(CC(C4)C2)C3)NC(=O)[C@H](CCCN)NC(=O)[C@@H]2CCCN2C(=O)[C@@H](Cc2ccccc2)NC1=O

>  <target-or-system>
Staphylococcus aureus

>  <bound-type>
=

>  <MIC [µg/mL]>
8

$$$$
>  <compound>
CC(C)C[C@@H]1NC(=O)[C@H](CCCN)NC(=O)[C@H](C(C)C)NC(=O)[C@@H]2CCCN2C(=O)[C@@H](Cc2ccccc2)NC(=O)[C@H](CC(C)C)NC(=O)[C@H](CCCN)NC(=O)[C@H](C(C)C)NC(=O)[C@@H]2CCCN2C(=O)[C@@H](Cc2ccccc2)NC1=O [GRAMICIDIN S] (cyclo(L[dF]PV[Orn]L[dF]PV[Orn]))

>  <target-or-system>
Staphylococcus aureus

>  <bound-type>
=

>  <MIC [µg/mL]>
8

$$$$
>  <compound>
CC(C)(C)[C@@H]1NC(=O)[C@H](CCCN)NC(=O)[C@@H]2CCCN2C(=O)[C@@H](Cc2ccccc2)NC(=O)[C@H](CCCN)NC(=O)[C@H](C23CC4CC(CC(C4)C2)C3)NC(=O)[C@H](CCCN)NC(=O)[C@@H]2CCCN2C(=O)[C@@H](Cc2ccccc2)NC(=O)[C@H](CCCN)NC1=O

>  <target-or-system>
Staphylococcus aureus

>  <bound-type>
=

>  <MIC [µg/mL]>
64

$$$$
>  <compound>
CC(C)[C@@H]1NC(=O)[C@H](CCCN)NC(=O)[C@@H]2CCCN2C(=O)[C@@H](Cc2ccccc2)NC(=O)[C@H](CCCN)NC(=O)[C@H](C(C)(C)C)NC(=O)[C@H](CCCN)NC(=O)[C@@H]2CCCN2C(=O)[C@@H](Cc2ccccc2)NC(=O)[C@H](CCCN)NC1=O

>  <target-or-system>
Staphylococcus aureus

>  <bound-type>
>

>  <MIC [µg/mL]>
64

$$$$
>  <compound>
CC(C)(C)[C@@H]1NC(=O)[C@H](CCCN)NC(=O)[C@@H]2CCCN2C(=O)[C@@H](Cc2ccccc2)NC(=O)[C@H](CCCN)NC(=O)[C@H](C(C)(C)C)NC(=O)[C@H](CCCN)NC(=O)[C@@H]2CCCN2C(=O)[C@@H](Cc2ccccc2)NC(=O)[C@H](CCCN)NC1=O

>  <target-or-system>
Staphylococcus aureus

>  <bound-type>
>

>  <MIC [µg/mL]>
64

$$$$

---

test system: Escherichia coli; experiment: Antibacterial activity against Escherichia coli ATCC 25922 after 24 hrs by broth dilution method; format: functional; details: ATCC 25922, 24 h
Square brackets hold non-standard residues; d marks the D form. Peptide text beside a SMILES is read from it. Orn = NCCC[C@H](N)C(=O)O

>  <compound>
CC(C)[C@@H]1NC(=O)[C@H](CCCN)NC(=O)[C@@H]2CCCN2C(=O)[C@@H](Cc2ccccc2)NC(=O)[C@H](CCCN)NC(=O)[C@H](C(C)(C)C)NC(=O)[C@H](CCCN)NC(=O)[C@@H]2CCCN2C(=O)[C@@H](Cc2ccccc2)NC(=O)[C@H](CCCN)NC1=O

>  <MIC>
> 64 µg/mL

$$$$
>  <compound>
CCCCCCCCCC[C@@H]1NC(=O)[C@H](CCCN)NC(=O)[C@@H]2CCCN2C(=O)[C@@H](Cc2ccccc2)NC(=O)[C@H](CCCN)NC(=O)[C@H](C(C)C)NC(=O)[C@H](CCCN)NC(=O)[C@@H]2CCCN2C(=O)[C@@H](Cc2ccccc2)NC(=O)[C@H](CCCN)NC1=O

>  <MIC>
16 µg/mL

$$$$
>  <compound>
CC(C)C[C@@H]1NC(=O)[C@H](CCCN)NC(=O)[C@H](C(C)C)NC(=O)[C@@H]2CCCN2C(=O)[C@@H](Cc2ccccc2)NC(=O)[C@H](CC(C)C)NC(=O)[C@H](CCCN)NC(=O)[C@H](C(C)C)NC(=O)[C@@H]2CCCN2C(=O)[C@@H](Cc2ccccc2)NC1=O [GRAMICIDIN S] (cyclo(L[dF]PV[Orn]L[dF]PV[Orn]))

>  <MIC>
32 µg/mL

$$$$
>  <compound>
CC(C)[C@@H]1NC(=O)[C@H](CCCN)NC(=O)[C@@H]2CCCN2C(=O)[C@@H](Cc2ccccc2)NC(=O)[C@H](CCCN)NC(=O)[C@H](C23CC4CC(CC(C4)C2)C3)NC(=O)[C@H](CCCN)NC(=O)[C@@H]2CCCN2C(=O)[C@@H](Cc2ccccc2)NC(=O)[C@H](CCCN)NC1=O

>  <MIC>
> 64 µg/mL

$$$$
>  <compound>
CCCCCCCCCC[C@@H]1NC(=O)[C@H](CCCN)NC(=O)[C@@H]2CCCN2C(=O)[C@@H](Cc2ccccc2)NC(=O)[C@H](CCCN)NC(=O)[C@H](CCCCCCCCCC)NC(=O)[C@H](CCCN)NC(=O)[C@@H]2CCCN2C(=O)[C@@H](Cc2ccccc2)NC(=O)[C@H](CCCN)NC1=O

>  <MIC>
64 µg/mL

$$$$
>  <compound>
NCCC[C@@H]1NC(=O)[C@H](CC23CC4CC(CC(C4)C2)C3)NC(=O)[C@H](CCCN)NC(=O)[C@@H]2CCCN2C(=O)[C@@H](Cc2ccccc2)NC(=O)[C@H](CCCN)NC(=O)[C@H](CC23CC4CC(CC(C4)C2)C3)NC(=O)[C@H](CCCN)NC(=O)[C@@H]2CCCN2C(=O)[C@@H](Cc2ccccc2)NC1=O

>  <MIC>
8 µg/mL

$$$$
>  <compound>
CC(C)C[C@@H]1NC(=O)[C@H](CCCN)NC(=O)[C@@H]2CCCN2C(=O)[C@@H](Cc2ccccc2)NC(=O)[C@H](CCCN)NC(=O)[C@H](CC23CC4CC(CC(C4)C2)C3)NC(=O)[C@H](CCCN)NC(=O)[C@@H]2CCCN2C(=O)[C@@H](Cc2ccccc2)NC(=O)[C@H](CCCN)NC1=O

>  <MIC>
64 µg/mL

$$$$

---

tested on: Staphylococcus aureus; test: Antibacterial activity against PVL-deficient and non-typable methicillin-resistant Staphylococcus aureus N229-T034 after 24 hrs by broth dilution method; format: functional; conditions: N229-T034, 24 h

>  <smi>
CC(C)C[C@@H]1NC(=O)[C@H](CCCN)NC(=O)[C@@H]2CCCN2C(=O)[C@@H](Cc2ccccc2)NC(=O)[C@H](CCCN)NC(=O)[C@H](CC(C)(C)C)NC(=O)[C@H](CCCN)NC(=O)[C@@H]2CCCN2C(=O)[C@@H](Cc2ccccc2)NC(=O)[C@H](CCCN)NC1=O

>  <target-or-system>
Staphylococcus aureus

>  <MIC>
> 64 µg/mL

$$$$
>  <smi>
CC(C)[C@@H]1NC(=O)[C@H](CCCN)NC(=O)[C@@H]2CCCN2C(=O)[C@@H](Cc2ccccc2)NC(=O)[C@H](CCCN)NC(=O)[C@H](C(C)C)NC(=O)[C@H](CCCN)NC(=O)[C@@H]2CCCN2C(=O)[C@@H](Cc2ccccc2)NC(=O)[C@H](CCCN)NC1=O

>  <target-or-system>
Staphylococcus aureus

>  <MIC>
> 64 µg/mL

$$$$
